Assay: self-splicing fitness, log relative to wild type (ln ratio); higher = more splicing; Tetrahymena group I intron in knt gene, E. coli kanamycin selection, DiMSum; sequences stand for … in CUCUCU…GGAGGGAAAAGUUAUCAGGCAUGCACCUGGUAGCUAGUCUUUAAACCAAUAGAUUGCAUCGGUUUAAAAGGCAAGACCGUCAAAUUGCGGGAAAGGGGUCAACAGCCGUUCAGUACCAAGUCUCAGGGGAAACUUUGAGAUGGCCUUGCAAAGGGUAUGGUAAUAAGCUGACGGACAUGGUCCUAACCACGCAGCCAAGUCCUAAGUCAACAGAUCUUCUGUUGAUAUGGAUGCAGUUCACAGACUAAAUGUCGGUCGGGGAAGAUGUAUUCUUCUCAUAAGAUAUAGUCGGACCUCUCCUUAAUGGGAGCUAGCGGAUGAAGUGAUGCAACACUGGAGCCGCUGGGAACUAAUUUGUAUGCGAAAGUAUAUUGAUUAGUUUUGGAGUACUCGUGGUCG;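 note: selection with 25 µg/mL kanamycin versus none on LB agar overnight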
Details: 37 °C
Documented self-splicing fitness (ln) across a set of sequences
measured-parameter: self-splicing fitness (ln)

         record_sequence  value_reported
 0  AUGAAGCAAUAUUACGGACC           0.108
 1  AAUAAGCAAUAUUACGCUUC           -2.59
 2  GGUGAGCAAUAUUACGUUCA           -1.92
 3  AGUCAGCAAUAUUACGUAGG           -1.64
 4  CAAUAGCAAUAUUACGGAUA           -2.77
 5  GAAUAGCAAUAUUACGAACA          -0.622
 6  CCUCAGCAAUAUUACGACAG          -0.262
 7  UCAGAGCAAUAUUACGGCUA           -2.11
 8  CCUAAGCAAUAUUACGAUCU           -3.07
 9  UCCUAGCAAUAUUACGCCAU          -0.725
10  GAGCAGCAAUAUUACGUGGG           -3.03
11  GCCUAGCAAUAUUACGUCCA           -1.38
12  CACUAGCAAUAUUACGAAUG           -1.01
13  UUAAAGCAAUAUUACGUCAA          -0.107
14  UAGCAGCAAUAUUACGACCG         -0.0437
15  GAGCAGCAAUAUUACGUGCU            -2.2

* * *

Assay: self-splicing fitness, log relative to wild type (ln ratio); higher = more splicing; Tetrahymena group I intron in knt gene, E. coli kanamycin selection, DiMSum; sequences stand for … in CUCUCU…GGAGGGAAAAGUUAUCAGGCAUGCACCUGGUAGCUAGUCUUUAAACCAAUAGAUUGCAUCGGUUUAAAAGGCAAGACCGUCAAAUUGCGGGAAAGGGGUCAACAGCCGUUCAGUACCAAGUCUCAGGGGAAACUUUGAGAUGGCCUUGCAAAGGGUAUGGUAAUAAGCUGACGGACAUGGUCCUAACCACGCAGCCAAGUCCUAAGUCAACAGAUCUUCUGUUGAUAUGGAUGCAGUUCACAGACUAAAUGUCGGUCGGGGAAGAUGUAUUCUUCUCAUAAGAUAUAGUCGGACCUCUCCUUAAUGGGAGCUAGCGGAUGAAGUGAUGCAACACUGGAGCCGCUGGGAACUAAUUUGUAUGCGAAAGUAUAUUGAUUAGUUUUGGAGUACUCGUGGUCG
Conditions: 30 °C
Lab note: anything with self-splicing fitness (ln) at or over -1 counts as True; the rest go in False.

         record_sequence  assigned_label
 0  AAUAAGCAAUAUUACGGCGU            True
 1  CCGUAGCAAUAUUACGCACA           False
 2  CACUAGCAAUAUUACGUACU           False
 3  UCCUAGCAAUAUUACGGUGC           False
 4  CCCCAGCAAUAUUACGCCGU           False
 5  GGGUAGCAAUAUUACGUAGA           False
 6  GAAUAGCAAUAUUACGCGAU           False
 7  CGUGAGCAAUAUUACGGCUG            True
 8  UACUAGCAAUAUUACGAGAA           False
 9  GCAUAGCAAUAUUACGCGCA           False
10  GCUAAGCAAUAUUACGUGUA           False
11  GUUUAGCAAUAUUACGGCAC            True
12  AUUGAGCAAUAUUACGAAGA           False
13  UAGCAGCAAUAUUACGUGAC           False
14  GUGAAGCAAUAUUACGUCUC            True
15  GACAAGCAAUAUUACGCGAG           False
16  GGUCAGCAAUAUUACGCCUA            True
17  CCCUAGCAAUAUUACGCCCU           False
18  UGAUAGCAAUAUUACGAACA            True
19  CGCCAGCAAUAUUACGGAAA           False
20  GUGUAGCAAUAUUACGCGAU           False
21  UGUGAGCAAUAUUACGGGGA           False
22  CAUCAGCAAUAUUACGUUUA           False
23  CGAAAGCAAUAUUACGUGUC           False
24  UACCAGCAAUAUUACGUUCG            True
25  ACAGAGCAAUAUUACGGAUC           False
26  UCCCAGCAAUAUUACGCAUA           False
27  GCGCAGCAAUAUUACGCAAA           False
28  AAAAAGCAAUAUUACGAGAU           False
29  ACCUAGCAAUAUUACGCGUG            True
30  UGCAAGCAAUAUUACGUUGC           False
31  UAUCAGCAAUAUUACGAGUA            True
